Recorded values, source the Immune Epitope Database (IEDB).

- target-of-assay: HLA-A*02:01
- experiment: IEDB peptide-MHC binding, purified MHC/direct/fluorescence; filed as Kd, often an IC50 or EC50 that approximates it; bounds were set here for any values at or beyond the usual limits of such assays
- measurement-context: source organism: Giardia lamblia ATCC 50803
property-name: Kd

Query: Name the reported Kd value associated with the sequence "PPQATAKYL"
Result: ≥ 20 µM

Query: I would be grateful if you could share the reported Kd for "VSSKKCTAL" .
Result: ≥ 20 µM

###

- target-of-assay: HLA-B*44:02
- experiment: IEDB peptide-MHC binding, purified MHC/direct/fluorescence; filed as Kd, often an IC50 or EC50 that approximates it; bounds were set here for any values at or beyond the usual limits of such assays
- measurement-context: source organism: Vibrio parahaemolyticus
property-name: Kd

Query: Could you tell me which Kd is on file for "YPKCDLVEL" ?
Result: ≥ 20 µM

###

- target-of-assay: HLA-B*07:02
- experiment: IEDB peptide-MHC binding, purified MHC/direct/fluorescence; filed as Kd, often an IC50 or EC50 that approximates it; bounds were set here for any values at or beyond the usual limits of such assays
- measurement-context: source organism: Zaire ebolavirus
property-name: Kd (µM)
Respond numerically; units are µM and should not be typed.

Query: Looking for the measured Kd of "FPSNMMVVT" , can you help?
Result: 0.751

###

- target-of-assay: HLA-B*57:01
- experiment: IEDB peptide-MHC binding, purified MHC/competitive/radioactivity; filed as Kd, often an IC50 or EC50 that approximates it; bounds were set here for any values at or beyond the usual limits of such assays
- measurement-context: source organism: Dengue virus 3 Martinique/1243/1999
property-name: pKd
pKd is a log-scale quantity: -log10 of the concentration expressed in molar.

Query: Query the reported pKd for HLA-B*57:01; item: "LGKAYAQMW"
Result: 6.68

###

- target-of-assay: HLA-B*46:01
- experiment: IEDB peptide-MHC binding, purified MHC/direct/fluorescence; filed as Kd, often an IC50 or EC50 that approximates it; bounds were set here for any values at or beyond the usual limits of such assays
- measurement-context: source organism: Yellow fever virus 17D
pKd: −log10 of the molar value.
property-name: pKd

Query: For the sequence "AEMGANLCV" , what pKd is on record?
Result: ≤ 4.70

###

- target-of-assay: HLA-B*39:01
- experiment: IEDB peptide-MHC binding, purified MHC/competitive/fluorescence; filed as Kd, often an IC50 or EC50 that approximates it; bounds were set here for any values at or beyond the usual limits of such assays
- measurement-context: source organism: Orthohantavirus sinnombreense
property-name: Kd

Query: Endpoint output: Kd of "KLHRYIDSM" . Value?
Result: ≥ 20 µM

###

- target-of-assay: HLA-B*40:01
- experiment: IEDB peptide-MHC binding, purified MHC/direct/fluorescence; filed as Kd, often an IC50 or EC50 that approximates it; bounds were set here for any values at or beyond the usual limits of such assays
- measurement-context: source organism: Pseudomonas putida
pKd: −log10 of the molar value.
property-name: pKd

Query: # input sequence: "DLSNSMRDF" ; wanted: its pKd
Result: ≤ 4.70

###

- target-of-assay: HLA-A*02:06
- experiment: IEDB peptide-MHC binding, purified MHC/competitive/radioactivity; filed as Kd, often an IC50 or EC50 that approximates it; bounds were set here for any values at or beyond the usual limits of such assays
- measurement-context: source organism: Human immunodeficiency virus type 1 (SF33 ISOLATE)
property-name: Kd (nM)
Field: numeric (nM). Do not append units.

Query: If you can, please state the reported Kd value of "ALIRILQQL" .
Result: 8.2
